# clearance per entry
Experiment: Compartmental plasma PK model
Format: in vivo
Conditions: NIH-III, mouse, in vivo; model clearance of the compound; read-out: CL (converted)
EXPERIMENTAL READOUT: clearance

{"columns": ["COMPOUND", "RECORDED RESULT"],
 "data": [
  ["[O-][n+]1nc(CCCN2CCOCC2)nc2cc3c(cc21)CCC3 [M14]", "1020 mL/min/kg"],
  ["O=C(O)CCc1nc2cc3c(cc2[n+]([O-])n1)CCC3 [M18]", "3.83 mL/min/kg"]
]}

###

Assay: Compartmental plasma PK model
Type: in vivo
Settings: NIH-III, mouse, plasma, other: i.p. and i.v. datasets fitted simultaneously; read-out: Steady state volume VSS
# Vd per entry

{"columns": ["TEST SMILES", "U", "Vd"],
 "data": [
  ["OC[C@@H](O)[C@@H](O)[C@H](O)[C@H](O)CO", "L/kg", 0.39],
  ["c1c2c(cc3nc(CCCN4CCOCC4)nnc13)CCC2", "L/kg", 11.6]
]}

###

Assay: in vivo
Settings: NIH-III, mouse, in vivo, ip, 186 mg/kg
EXPERIMENTAL READOUT: AUC (µM·h)

{"columns": ["COMPOUND", "U", "RECORDED RESULT"],
 "data": [
  ["[O-][n+]1nc(CCCN2CCOCC2)nc2cc3c(cc21)CCC3 [M14]", "µM·h", 24.6],
  ["O=C(O)CCc1nc2cc3c(cc2[n+]([O-])n1)CCC3 [M18]", "µM·h", 204],
  ["[O-][n+]1nc(CCCN2CCOCC2)[n+]([O-])c2cc3c(cc21)CCC3 [SN30000]", "µM·h", 155]
]}

###

# half-life per entry
Test: in vivo
Conditions: NIH-III nude, mouse, in vivo, iv, 1.86 mg/kg

{"columns": ["TEST SMILES", "half-life"],
 "data": [
  ["[O-][n+]1nc(CCCN2CCOCC2)nc2cc3c(cc21)CCC3", "12.3 min"],
  ["[O-][n+]1nc(CCCN2CCOCC2)[n+]([O-])c2cc3c(cc21)CCC3", "8.03 min"]
]}

###

Assay: Rectal temperature and MTD in rats
Format: in vivo
Settings: rat, in vivo, iv; Wistar rats, single i.v. dose

{"columns": ["COMPOUND", "MTD [mg/kg]"],
 "data": [
  ["[O-][n+]1nc(CCCN2CCOCC2)[n+]([O-])c2cc3c(cc21)CCC3 [SN30000]", 90]
]}

###

Assay: in vivo
Settings: NIH-III, mouse, liver, ip, 186 mg/kg, Terminal T1/2, i.p. SN30000 186 mg/kg, non-tumour-bearing mice
EXPERIMENTAL READOUT: half-life

{"columns": ["TEST SMILES", "RECORDED RESULT"],
 "data": [
  ["c1c2c(cc3nc(CCCN4CCOCC4)nnc13)CCC2", "42.1 min"]
]}

###

# Cmax per entry
Assay: in vivo
Conditions: NIH-III, mouse, in vivo, ip, 1.86 mg/kg
EXPERIMENTAL READOUT: Cmax

{"columns": ["TEST SMILES", "RECORDED RESULT"],
 "data": [
  ["O=C(O)CCc1nc2cc3c(cc2[n+]([O-])n1)CCC3", "650 nM"],
  ["[O-][n+]1nc(CCCN2CCOCC2)nc2cc3c(cc21)CCC3", "53 nM"],
  ["[O-][n+]1nc(CCCN2CCOCC2)[n+]([O-])c2cc3c(cc21)CCC3", "590 nM"]
]}

###

Test: in vivo
Settings: NIH-III, mouse, plasma, ip, 1.86 mg/kg

{"columns": ["TEST SMILES", "AUC / nM·h"],
 "data": [
  ["c1c2c(cc3nc(CCCN4CCOCC4)nnc13)CCC2", 2.9]
]}

###

Test: Metabolite profile in plasma, liver and HT29 tumor after i.p. SN30000
Format: in vivo, NIH-III mice
Details: SN30000 186 mg/kg i.p., HT29 tumor
EXPERIMENTAL READOUT: Metabolite/SN30000 peak area, Tumor

{"columns": ["MOLECULE", "RECORDED RESULT"],
 "data": [
  ["[O-][n+]1nc(CCCN2CCOCC2)nc2cc3c(cc21)CC=C3 [M5]", 0.04],
  ["[O-][n+]1nc(CCC[N+]2([O-])CCOCC2)nc2cc3c(cc21)CCC3 [M15]", 0.24],
  ["[O-][n+]1nc(CCCN2CCOCC2)[n+]([O-])c2cc3c(cc21)CCC3 [SN30000]", 1.00],
  ["O=C(O)CCc1nnc2cc3c(cc2n1)CCC3 [M17]", 0.14],
  ["[O-][n+]1nc(CCCNCCO)[n+]([O-])c2cc3c(cc21)CCC3 [M7]", 0.06]
]}

###

Assay: in vivo
Conditions: NIH-III, mouse, plasma, ip, 18.6 mg/kg

{"columns": ["TEST SMILES", "half-life [min]"],
 "data": [
  ["c1c2c(cc3nc(CCCN4CCOCC4)nnc13)CCC2", 39.1]
]}

###

Test: Compartmental plasma PK model
Format: in vivo
Conditions: NIH-III, mouse, in vivo; model clearance

{"columns": ["TEST SMILES", "U", "clearance"],
 "data": [
  ["[O-][n+]1nc(CCCN2CCOCC2)[n+]([O-])c2cc3c(cc21)CCC3", "mL/min/kg", 189]
]}

###

Assay: in vivo
Conditions: NIH-III, mouse, in vivo, ip, 186 mg/kg, Terminal T1/2, i.p. SN30000 186 mg/kg; liver, non-tumour-bearing mice

{"columns": ["TEST SMILES", "half-life [min]"],
 "data": [
  ["[O-][n+]1nc(CCCN2CCOCC2)nc2cc3c(cc21)CCC3", 40.5],
  ["[O-][n+]1nc(CCCN2CCOCC2)[n+]([O-])c2cc3c(cc21)CCC3", 44.3],
  ["O=C(O)CCc1nc2cc3c(cc2[n+]([O-])n1)CCC3", 183]
]}

###

Assay: in vivo
Settings: NIH-III nude, mouse, plasma, iv, 1.86 mg/kg

{"columns": ["TEST SMILES", "U", "AUC"],
 "data": [
  ["c1c2c(cc3nc(CCCN4CCOCC4)nnc13)CCC2", "nM·h", 4.7]
]}

###

Assay: Reductive metabolism in liver S9 preparations
Assay type: in vitro ADME, NIH-III mice
Conditions: female, NIH-III, liver S9 (9,000 g post-mitochondrial supernatant), pH 7.4; anoxic mouse liver S9; read-out: Apparent Km for formation of M14
EXPERIMENTAL READOUT: Km

{"columns": ["TEST SMILES", "EXPERIMENTAL READOUT", "RECORDED RESULT"],
 "data": [
  ["[O-][n+]1nc(CCCN2CCOCC2)[n+]([O-])c2cc3c(cc21)CCC3", "Km", "974 µM"]
]}

###

Assay: in vivo
Settings: NIH-III nude, mouse, in vivo, iv

{"columns": ["COMPOUND", "clearance"],
 "data": [
  ["[O-][n+]1nc(CCCN2CCOCC2)[n+]([O-])c2cc3c(cc21)CCC3 [SN30000]", "83.3 to 167 mL/min/kg"]
]}

###

Experiment: Metabolite profile in plasma, liver and HT29 tumor after i.p. SN30000
Assay type: in vivo, NIH-III mice
Settings: SN30000 186 mg/kg i.p., liver
Classes based on Metabolite/SN30000 peak area, Liver: lower bin: < 0.3; middle bin: ≥ 0.3 and < 1; upper bin: ≥ 1

{"columns": ["COMPOUND", "LABEL"],
 "data": [
  ["OCCNCCCc1nnc2cc3c(cc2n1)CCC3 [M11]", "middle bin"],
  ["[O-][n+]1nc(CCCNCCO)[n+]([O-])c2cc3c(cc21)CCC3 [M7]", "lower bin"],
  ["[O-][n+]1nc(CCCN2CCOCC2)nc2cc3c(cc21)CC=C3 [M5]", "middle bin"],
  ["[O-][n+]1nc(CCC[N+]2([O-])CCOCC2)nc2cc3c(cc21)CCC3 [M15]", "lower bin"],
  ["c1c2c(cc3nc(CCCN4CCOCC4)nnc13)CCC2 [M13]", "upper bin"],
  ["O=C(O)CCc1n[n+]([O-])c2cc3c(cc2[n+]1[O-])CCC3 [M16]", "middle bin"],
  ["[O-][n+]1nc(CCCN2CCOCC2)nc2cc3c(cc21)CCC3 [M14]", "upper bin"],
  ["O=C1COCCN1CCCc1nc2cc3c(cc2[n+]([O-])n1)CCC3 [M19]", "lower bin"],
  ["[O-][n+]1nc(CCCNCCO)nc2cc3c(cc21)CCC3 [M12]", "upper bin"],
  ["O=C(O)CCc1nc2cc3c(cc2[n+]([O-])n1)CCC3 [M18]", "middle bin"],
  ["O=C(O)CCc1nnc2cc3c(cc2n1)CCC3 [M17]", "lower bin"]
]}
